- ASSAYED TARGET: HA of virus H1-BS10
- PROTOCOL: cell-based or functional assay
Consider the following binders; for each one, report its Neutralization IC50, H1-BS10.
Give the figure together with its unit, number first.

Check out these entries, answers already filled in.
[
  {
    "BINDER": "Antibody 14 (antibody, V domains shown) VH: QVQLQQSGPGLVKPSQTLSLTCAISGDSVSSNNAVWNWIRQSPSRGLEWLGRTYYRSKWYNDYAESVKSRITINPDTSKNQFSLQLNSVTPEDTAVYYCARSGHITVFGVNVDAFDMWGQGTTVTVSS VL: DIQMTQSPSSLSASVGDRVTITCRTSQSLSSYTHWYQQKPGKAPKLLIYAASSRLSGVPSRFSGSGSGTDFTLTISSLQPEDFATYYCQQSRTFGQGTKVEIK",
    "Neutralization IC50, H1-BS10": "1.93 µg/mL"
  },
  {
    "BINDER": "Antibody 3 (antibody, V domains shown) VH: QVQLQESGPGLVKPSQTLSLTCAISGDSVSSNNAVWNWIRQSPSRGLEWLGRTYYRSKWYNDYAESVKSRITVNPDTSKNQFSLHLKSVTPEDTAVFYCVRSGHITVFGVNVDAFDMWGQGTMVTVSS VL: DIQMTQSPSSLSASVGDRVTITCRTSQSLSSYLHWYQQKPGKAPKLLIYAASSLQSGVPSRFSGSGSGTDFTLTISSLQPEDFATYYCQQSRTFGQGTKVEIK",
    "Neutralization IC50, H1-BS10": "2.16 µg/mL"
  }
]

API: the following record is the query input.
So what's the measured Neutralization IC50, H1-BS10 for this one? Antibody 13 (antibody, V domains shown) VH: QVQLQQSGPGLVKPSQTLSLTCAISGDSVSSYNAVWNWIRQSPSRGLEWLGRTYYRSGWYNDYAESVKSRITINPDTSKNQFSLQLNSVTPEDTAVYYCARSGHITVFGVNVDAFDMWGQGTMVTVSS VL: DIQMTQSPSSLSASVGDRVTITCRTSQSLSSYDHWYQQKPGKAPKLLIYAASSRLSGVPSRFSGSGSGTDFTLTISSLQPEDFATYYCQQSRTFGQGTKVEIK 1.23 µg/mL
